Tgt: NLRP3 (Homo sapiens, UniProt Q96P20)
Sequence (Q96P20 whole entry): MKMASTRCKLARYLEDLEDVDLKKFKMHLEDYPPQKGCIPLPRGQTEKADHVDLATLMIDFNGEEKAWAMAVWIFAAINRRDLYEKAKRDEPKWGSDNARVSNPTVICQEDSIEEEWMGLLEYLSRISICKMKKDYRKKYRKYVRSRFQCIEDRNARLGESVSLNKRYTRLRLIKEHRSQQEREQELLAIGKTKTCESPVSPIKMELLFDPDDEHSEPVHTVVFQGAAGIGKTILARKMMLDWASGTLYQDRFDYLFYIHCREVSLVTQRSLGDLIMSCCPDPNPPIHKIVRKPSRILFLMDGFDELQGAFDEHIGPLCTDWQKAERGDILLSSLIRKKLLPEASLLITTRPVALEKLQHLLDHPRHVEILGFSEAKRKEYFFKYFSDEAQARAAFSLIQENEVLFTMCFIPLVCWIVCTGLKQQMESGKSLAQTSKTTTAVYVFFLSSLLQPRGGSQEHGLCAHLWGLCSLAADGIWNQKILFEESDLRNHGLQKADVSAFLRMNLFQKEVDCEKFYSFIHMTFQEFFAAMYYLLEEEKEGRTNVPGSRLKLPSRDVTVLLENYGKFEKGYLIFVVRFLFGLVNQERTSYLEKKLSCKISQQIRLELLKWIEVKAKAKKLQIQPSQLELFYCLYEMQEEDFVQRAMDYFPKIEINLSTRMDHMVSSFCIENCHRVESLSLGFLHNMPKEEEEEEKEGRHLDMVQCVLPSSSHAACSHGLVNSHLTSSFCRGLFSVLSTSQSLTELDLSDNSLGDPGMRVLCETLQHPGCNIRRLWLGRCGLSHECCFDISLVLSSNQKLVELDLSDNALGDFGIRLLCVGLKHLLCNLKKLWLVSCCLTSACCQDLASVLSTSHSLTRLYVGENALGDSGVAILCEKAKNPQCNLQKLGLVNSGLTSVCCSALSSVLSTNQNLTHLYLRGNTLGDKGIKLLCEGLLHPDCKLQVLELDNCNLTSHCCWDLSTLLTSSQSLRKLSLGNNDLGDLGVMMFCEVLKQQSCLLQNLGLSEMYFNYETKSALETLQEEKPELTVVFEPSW
Assay Explanation: IL-1β Secretion Assay (NLRP3-dependent IL1β secretion in THP1 cells)
Settings: PMA-differentiated THP-1 cells; compounds incubated 20 h; 2.5 μM Nigericin 3 h; HTRF IL-1β readout; read-out: IC50 IL-1β Inhibition
pIC50: −log10 of the molar value.
Test Readout: pIC50

Inquiry: State its pIC50 on NLRP3 (Homo sapiens, UniProt Q96P20): O=C1NCCC1Nc1nnc(-c2ccc(C(F)(F)F)cc2OC(F)(F)F)c2cccn12 (stereo not drawn) [Compound 124]
Reply text: 8.00 to 9.00

Inquiry: State its pIC50 on NLRP3 (Homo sapiens, UniProt Q96P20): CCN1CCC[C@@H](Nc2nnc(-c3ccc(OC)c(OC)c3OC)c3cc(C)nn23)C1 [Compound 370]
Reply text: 7.00 to 8.00

Inquiry: State its pIC50 on NLRP3 (Homo sapiens, UniProt Q96P20): O=C1NCCC1Nc1nnc(-c2ccc(OC(F)F)cc2OC(F)(F)F)c2cncn12 (stereo not drawn) [Compound 260]
Reply text: 8.00 to 9.00

Inquiry: State its pIC50 on NLRP3 (Homo sapiens, UniProt Q96P20): OCCN1CCC[C@@H](Nc2nnc(-c3ccc(C(F)(F)F)cc3OC(F)F)c3c(F)ccn23)C1 [Compound 15]
Reply text: 8.00 to 9.00

Inquiry: State its pIC50 on NLRP3 (Homo sapiens, UniProt Q96P20): O[C@@H]1CCCC[C@H]1Nc1nnc(-c2ccc(Br)cc2OC(F)F)c2cncn12 [Compound 306]
Reply text: 8.00 to 9.00

Inquiry: State its pIC50 on NLRP3 (Homo sapiens, UniProt Q96P20): O[C@@H]1CCCC[C@H]1Nc1nnc(-c2ccc(C(F)(F)F)cc2C(F)(F)F)c2ccnn12 [Compound 394]
Reply text: 8.00 to 9.00

Inquiry: State its pIC50 on NLRP3 (Homo sapiens, UniProt Q96P20): CCN1CC[C@H](O)[C@@H](Nc2nnc(-c3ccc(C(F)(F)F)cc3OC(F)F)c3cccn23)C1 [Compound 46]
Reply text: 7.00 to 8.00

Inquiry: State its pIC50 on NLRP3 (Homo sapiens, UniProt Q96P20): Cc1cc2c(-c3ccc(C4CC4)cc3OC(F)F)nnc(N[C@@H]3CCCN(C)C3)n2c1 [Compound 24]
Reply text: > 9.00

Inquiry: State its pIC50 on NLRP3 (Homo sapiens, UniProt Q96P20): Cc1cc2c(-c3ccc(C(F)(F)F)cc3OC(F)F)nnc(N[C@H]3C[C@@](C)(O)C3)n2n1 [Compound 380]
Reply text: 8.00 to 9.00
